src = PubChem BioAssay AID431

assay: viability loss of HPDE-C7K cells – cell-based, fluorescence, HTS, primary screen (AID 431); details: HPDE-C7K KRASV12 cells, Alamar Blue viability, 48 h; at 10 µM
Screen size: about 63,000 compounds; about 1,100 (1.7%) were called active.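 How the source made its calls: active means compounds whose percent cytotoxicity in the single-dose primary screen, scaled between solvent and toxic-drug controls, exceeds 50; inactive means the rest.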 This is one part of a sample in which actives are shown more often than they occur. Results with a measured potency or affinity are listed apart.
Possible outcomes: active, inactive

• CCOC(=O)c1cc(C)n(CCc2ccccc2)c1C = inactive
• CCCNC(=O)c1[nH]c(C)c(C(C)=O)c1C = inactive
• CCOC(=O)c1sc(NC(=O)CSc2ncn(-c3ccccc3)n2)nc1C = active
• O=C(CCC(=O)N(CC(=O)NC1CCCCC1)c1ccc2c(c1)OCO2)Nc1ccccn1 = inactive
• Nc1nc(-c2ccccc2Br)cs1 = inactive
• CN(C)c1ncc(C(=O)O)cn1 = inactive
• O=c1oc2ccccc2n1CCn1c2ccccc2c2nc3ccccc3nc21 = inactive
• Cc1ccc(C(=O)CSc2nnc(CNc3nc(-c4ccccc4)cs3)n2C)cc1 = inactive
• COC(=O)c1c(F)c(F)c(N2CCOCC2)c(F)c1F = inactive
• O=C(NCc1ccccc1Cl)C1CCN(S(=O)(=O)N2CCCCC2)CC1 = inactive
• O=C(Nc1ccc2c(c1)OCCO2)c1ccc(Br)c(S(=O)(=O)N2CCOCC2)c1 = inactive
• Cc1nnc2sc(-c3cccc(NC(=O)c4cccnc4)c3)nn12 = inactive
• COc1ccc2c(c1)CC(C1(O)C(=O)Nc3ccccc31)C2=O (stereo not drawn) = inactive
• CCOC(=O)C1=C(C)C(c2ccc(OC)cc2OC)NC(=O)N1 (stereo not drawn) = inactive
• Cn1c(=O)c2c(nc(Br)n2Cc2c(F)cccc2Cl)n(C)c1=O = inactive
• CSc1nnc2n(CCc3ccccc3)c(=O)c3c4c(sc3n12)CCCC4 = inactive
• O=C(CN1CCN(C(=O)c2cccs2)CC1)NC1CCCCC1 = inactive
• COc1ccc(C2C(C(=O)Nc3ccccc3OC)=C(C)Nc3ncnn32)cc1 (stereo not drawn) = inactive
• COc1ccc(OCCC(=O)Nc2cc(C)on2)cc1 = inactive
• NC1=NC2(CCCCC2)n2c(nc3ccccc32)N1 = inactive
• CSCC[C@@H](Nc1nc(-c2ccccc2)nc2c1oc1ccccc12)C(=O)O = inactive
• NC1=NC2(CCC(c3ccccc3)CC2)n2c(nc3ccccc32)N1 (stereo not drawn) = active
• COc1ccccc1CN(CC(=O)NCc1ccco1)C(=O)CNS(=O)(=O)c1ccccc1 = inactive
• CCN(CC)CCNC(=O)C1CCC(=O)N(c2ccc(OC)cc2)C1c1ccc(F)cc1 (stereo not drawn) = inactive
• CCc1[nH]c(C)c(C(C)=O)c1C = active
• Cn1c(N2CCC(C(N)=O)CC2)nc2c1c(=O)n(Cc1ccc(Cl)cc1)c(=O)n2C = inactive
• CCOc1ccc(C2CC(c3ccc(F)cc3)n3ncnc3N2)cc1 (stereo not drawn) = inactive
• c1ccc(CNc2c3c(nc4ncnn24)CCCC3)nc1 = inactive
• COc1ccc(-c2cc(C(F)F)n3ncc(C(=O)N4CCN(C(=O)c5ccco5)CC4)c3n2)cc1 = inactive
• O=C(CSc1ncn(-c2ccccc2)n1)Nc1nc2ccccc2s1 = inactive
• CCOC(=O)c1sc(NC(=O)CSc2nnnn2-c2ccccc2)nc1C = inactive
• O=C(CCN1CCc2ccccc2C1)Nc1ccc2c(c1)OCO2 = inactive
• Fc1cccc(Cl)c1CSc1nnnn1-c1ccc2c(c1)OCO2 = active
• c1ccc(-c2nc3ccccc3nc2-c2ccccn2)nc1 = inactive
• O=S(=O)(Cc1ccccc1)N1CCn2c(nc3ccccc32)C1 = inactive
• Fc1cccc(Cl)c1Cn1nnc(-c2ccc3c(c2)OCO3)n1 = inactive
• COCCn1c(Cc2ccccc2)nnc1SCC(=O)NC(C)C = inactive
• O=C1CCCc2sc3c(c2N1)CCCCC3 = inactive
• O=S(=O)(NC1CCCC1)c1ccccc1Cl = inactive
• O=C(Nc1nc(-c2ccco2)cs1)c1ccccc1 = inactive
• O=C(CCCN1CCOCC1)c1ccc2c(c1)OCCO2 = inactive
• CC(=O)N[C@H]1C[C@@H]1c1ccccc1 = inactive
• CCc1ccccc1N(C(=O)c1cccs1)C1C=CS(=O)(=O)C1 (stereo not drawn) = inactive
• O=C(Nc1ccncc1)c1ccc2c(c1)OCCO2 = inactive
• COC(=O)COc1cccc(NC(=O)c2ccccc2)c1 = inactive
• CCc1ccc2c(c1)C(C)=CC(C)(C)N2 = inactive
• Cc1nc(NC(=O)c2oc3ccccc3c2C)sc1C(=O)N(C)C = inactive
• CC(=O)c1c(C)[nH]c(C)c1C(C)=O = inactive
